- assay_target: T1, human IL-17A (construct not stated) (human, UniProt Q16552 24-155, limits assumed)
- T1 construct: also called huIL-17A; human IL-17A biotin
- T1 sequence: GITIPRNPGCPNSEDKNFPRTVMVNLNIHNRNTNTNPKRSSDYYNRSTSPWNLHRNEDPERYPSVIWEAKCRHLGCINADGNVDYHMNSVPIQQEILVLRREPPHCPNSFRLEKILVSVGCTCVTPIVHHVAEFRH
- protocol: ELISA on coated huIL-17A, crude Fab extract
Each record here notes measured Classic ELISA (normalized to XAB1 Fab).

binder: MB456 (Fab, V domains shown, heavy chain C-terminal Flag tag) VH: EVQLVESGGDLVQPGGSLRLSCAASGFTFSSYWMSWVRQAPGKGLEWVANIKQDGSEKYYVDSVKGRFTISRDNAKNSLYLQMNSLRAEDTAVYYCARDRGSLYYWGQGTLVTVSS VL: AIQLTQSPSSLSASVGDRVTITCRPSQGILWHLAWYQQKPGKAPKLLIYDASSLENGVPSRFSGSGSGTDFTLTISSLQPEDFATYYCQQFNSYPLTFGGGTKVEIK
Classic ELISA (normalized to XAB1 Fab): 2.4 ratio to XAB1 Fab

Now take the following binder into account.
Input MB438 (Fab, V domains shown, 32 stays A); heavy chain C-terminal Flag tag) VH: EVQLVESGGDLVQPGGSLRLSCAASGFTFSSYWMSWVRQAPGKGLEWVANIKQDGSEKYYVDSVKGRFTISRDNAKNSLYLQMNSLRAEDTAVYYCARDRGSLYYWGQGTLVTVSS VL: AIQLTQSPSSLSASVGDRVTITCRPSQGIPYALAWYQQKPGKAPKLLIYDASSLENGVPSRFSGSGSGTDFTLTISSLQPEDFATYYCQQFNSYPLTFGGGTKVEIK . Output Classic ELISA (normalized to XAB1 Fab): 2.7 ratio to XAB1 Fab
